All figures here come from ChEMBL document CHEMBL5442219.

Target: 5-hydroxytryptamine receptor 1A (Homo sapiens)
Details: Compound concentration 10 µM; call rule not given here
Please reply with one of these outcomes: active, inactive

Reference set, count: 3
>>> print(df.to_string())
                      smiles_representation  assigned_category
0  CCc1cc(C(C)=O)c(O)cc1OCCCCCC(C)(C)c1nn[nH]n1           inactive
1  COc1cc(-n2cnc3cc(-c4ccc(Cl)cc4)sc3c2=O)ccc1OCCN1CCCC1           inactive
2  c1cc(CN2CCCNCCNCCCNCC2)ccc1CN1CCCNCCNCCCNCC1           inactive

Answer briefly: the call reported for "C/C(=N\NC(=O)[C@@H]1C(=O)NC[C@H]1c1ccccc1)c1cccc(Br)c1" in this assay.
inactive

Per the records of this test, what outcome belongs to "COc1ccc(/C=C/CCCCOc2ccc(C(=O)c3cccc(C(=O)O)c3)cc2CCC(=O)O)cc1" ?
inactive

Which result was noted for this compound in the test: "Nc1nc(NCCc2ccc(O)cc2)nc2nc(-c3ccco3)nn12"
inactive

Name the outcome recorded for "CCN(CC)CCCCC1CCN(CC(=O)N2c3ccccc3C(=O)Nc3cccnc32)CC1" in the assay.
inactive

Query: recorded result category for "CS(=O)(=O)NC[C@H]1CC[C@H](Nc2nc3c(s2)CCSc2ccccc2-3)CC1" in this test
inactive

Fill in: this test's call for "CCC[C@H](Oc1cc(C)c(-n2cc(C(F)(F)F)cn2)c(C)c1)c1ccc(C(=O)NCCC(=O)O)cc1" is ___
inactive

Recorded test call requested for "COc1cccc([C@@H](C)NCCCc2ccccc2Cl)c1"
active

---

Molecular target: UniProtKB P11229
Sequence (whole entry): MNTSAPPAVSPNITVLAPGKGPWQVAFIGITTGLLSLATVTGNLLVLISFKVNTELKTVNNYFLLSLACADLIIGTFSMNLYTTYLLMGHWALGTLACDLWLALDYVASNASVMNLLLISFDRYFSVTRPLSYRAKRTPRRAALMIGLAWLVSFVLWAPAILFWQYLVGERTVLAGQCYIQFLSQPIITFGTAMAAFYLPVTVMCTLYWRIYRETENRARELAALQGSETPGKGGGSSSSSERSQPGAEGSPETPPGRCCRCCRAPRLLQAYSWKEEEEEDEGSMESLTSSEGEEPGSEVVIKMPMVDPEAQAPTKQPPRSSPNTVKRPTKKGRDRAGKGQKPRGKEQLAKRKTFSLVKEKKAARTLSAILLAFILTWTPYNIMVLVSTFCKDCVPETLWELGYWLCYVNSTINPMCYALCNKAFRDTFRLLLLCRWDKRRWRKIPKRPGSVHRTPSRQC
Details: Compound concentration 10 µM; call rule not given here
Entry note: the call must match one of TRUE for active, FALSE for inactive

// below: answered compounds
                      smiles_representation  assigned_category
0  CCc1cc2c(c(CC)n1)CCC(=O)N2Cc1ccc(-c2ccccc2-c2nnn[nH]2)cc1              FALSE
1  CCN(CC)CCCCC1CCN(CC(=O)N2c3ccccc3C(=O)Nc3cccnc32)CC1               TRUE
2  CCCCN(CCCC)C(=O)CN1C[C@@H](c2ccc3c(c2)OCO3)[C@H](C(=O)O)[C@H]1c1ccc(OC)cc1              FALSE

Continue with the next compound.
Any idea what this test logged for "CCCSc1nc(N[C@@H]2C[C@H]2c2ccc(F)c(F)c2)c2nnn([C@@H]3C[C@H](OCCO)[C@@H](O)[C@H]3O)c2n1" ?
FALSE

---

Biological target: Muscarinic acetylcholine receptor M5 (Homo sapiens) (UniProt P08912)
Sequence (P08912 whole entry): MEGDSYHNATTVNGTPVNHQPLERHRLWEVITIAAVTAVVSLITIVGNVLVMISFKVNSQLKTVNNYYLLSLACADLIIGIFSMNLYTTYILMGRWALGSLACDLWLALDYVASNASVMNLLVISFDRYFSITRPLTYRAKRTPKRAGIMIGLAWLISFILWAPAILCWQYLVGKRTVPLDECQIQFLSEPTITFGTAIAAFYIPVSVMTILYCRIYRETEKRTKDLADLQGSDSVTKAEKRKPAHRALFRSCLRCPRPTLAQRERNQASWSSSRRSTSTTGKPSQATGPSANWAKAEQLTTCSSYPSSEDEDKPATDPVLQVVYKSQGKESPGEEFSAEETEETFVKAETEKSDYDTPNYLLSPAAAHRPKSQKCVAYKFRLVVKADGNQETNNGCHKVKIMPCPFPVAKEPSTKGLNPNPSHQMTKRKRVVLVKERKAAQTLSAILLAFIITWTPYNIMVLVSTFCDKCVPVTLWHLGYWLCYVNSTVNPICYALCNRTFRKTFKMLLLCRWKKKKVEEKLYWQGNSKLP
Details: Compound concentration 10 µM
Description: PDSP Primary Binding target: CHRM5 - Compounds are tested at 10 uM concentration, plate are incubated at room temperature in the dark for 90 minutes. Reaction are stopped by vacuum filtration onto 0.3% polyethyleneimine soaked filter mats using Filtermate harvester. Scintilation cocktail is then melted onto microwave-dried filters on a hot plate and the radio activity is counted in Microbia counter.
PROPERTY: inhibition (%)
Your answer is read as %, so omit the unit and give the number.

Example results:
>>> print(df.to_string())
                                   molecule                               test_target  assay_result
0  COc1ccc(CNC(=O)c2cc(-c3cncc(Cl)c3)cnc2-c2ccccn2)nc1OC  Muscarinic acetylcholine receptor M5 (Homo sapiens) (UniProt P08912)          0.79
1  NC(=O)[C@@H]1CCCN1C(=O)[C@H](Cc1c[nH]cn1)NC(=O)[C@@H]1CCC(=O)N1  Muscarinic acetylcholine receptor M5 (Homo sapiens) (UniProt P08912)          5.07
2  Cc1nc2sccn2c(=O)c1CCN1CCC(=C(c2ccc(F)cc2)c2ccc(F)cc2)CC1  Muscarinic acetylcholine receptor M5 (Homo sapiens) (UniProt P08912)         -0.02
3  NCCc1cn(S(=O)(=O)c2c(Cl)nc3sccn23)c2ccccc12  Muscarinic acetylcholine receptor M5 (Homo sapiens) (UniProt P08912)          0.78
4  Cc1cn2cc(CC(=O)N3CCC4(CC3)CN(Cc3ccc(-n5nccn5)cc3Cl)C4)nc2s1  Muscarinic acetylcholine receptor M5 (Homo sapiens) (UniProt P08912)          71.8

// next entry
inhibition recorded for this molecule, OCc1cc(C(O)CNCCCCCCOCCCCc2ccccc2)ccc1O (centres undefined) , is 60.2

---

Target: Beta-3 adrenergic receptor (Homo sapiens) (UniProt P13945)
Sequence (P13945 whole entry, looked up): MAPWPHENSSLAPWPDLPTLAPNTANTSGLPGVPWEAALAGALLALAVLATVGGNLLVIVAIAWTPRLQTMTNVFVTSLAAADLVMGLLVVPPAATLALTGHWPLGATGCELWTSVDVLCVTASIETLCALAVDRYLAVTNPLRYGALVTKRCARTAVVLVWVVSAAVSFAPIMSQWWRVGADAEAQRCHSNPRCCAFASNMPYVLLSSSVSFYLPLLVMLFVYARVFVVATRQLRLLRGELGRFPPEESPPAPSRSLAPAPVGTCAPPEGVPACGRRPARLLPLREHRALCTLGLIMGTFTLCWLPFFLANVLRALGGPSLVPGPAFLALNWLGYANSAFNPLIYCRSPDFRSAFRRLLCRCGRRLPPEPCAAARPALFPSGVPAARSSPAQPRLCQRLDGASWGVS
Conditions: Compound concentration 10 µM
Description: PDSP Primary Binding target: ADRB3 - Compounds are tested at 10 uM concentration, plate are incubated at room temperature in the dark for 90 minutes. Reaction are stopped by vacuum filtration onto 0.3% polyethyleneimine soaked filter mats using Filtermate harvester. Scintilation cocktail is then melted onto microwave-dried filters on a hot plate and the radio activity is counted in Microbia counter.
PROPERTY: inhibition (%)
Just the number please, in %, no unit attached.

Worked set:
                      smiles_representation                               test_target  output_unit  assay_result
0  COc1ccnc(N2CCC3(CCCN(Cc4c[nH]c5ccccc45)C3=O)CC2)n1  Beta-3 adrenergic receptor (Homo sapiens) (UniProt P13945)            %         -5.97
1  COc1ccc(OC(F)(F)F)cc1CN[C@H]1CCCN[C@H]1c1ccccc1  Beta-3 adrenergic receptor (Homo sapiens) (UniProt P13945)            %          6.31

Reported inhibition ( "CCCCCNC(=O)NS(=O)(=O)c1cc([N+](=O)[O-])ccc1NC1CCCCC1" ) = 39.7

// inhibition value for "N[C@H](C(=O)O)c1ccc(C(=O)O)c(C(=O)O)c1" : 18.2

Note to self: inhibition recorded for "Cc1cn2cc(CC(=O)N3CCC4(CC3)CN(Cc3ccc(-n5nccn5)cc3Cl)C4)nc2s1" was 25.6

Lab note: "O=c1ccn([C@@H]2O[C@H](COP(=O)(O)OP(=O)(O)O)[C@@H](O)[C@H]2O)c(=O)[nH]1" gave inhibition of 15.3

Entry "Cc1c(C2=CCN(C(=O)N(C)C(C)C)CC2)nnn1-c1cccnc1F" ; inhibition = 14.8

Input "Cc1cc([C@@H](C)Nc2cccc(-c3cc(C)c(C(=O)N[C@@H](C)C(=O)O)c(C)c3)c2)ccc1Cl" . Output inhibition: 70.7

The molecule identified as "Cc1nc(C#Cc2ccnc(Cl)c2)c(C)n1-c1ccc(OC(F)(F)F)cc1" registered its inhibition at 63

---

Molecular target: Alpha-2C adrenergic receptor (Homo sapiens) (UniProt P18825)
Sequence (P18825 whole entry): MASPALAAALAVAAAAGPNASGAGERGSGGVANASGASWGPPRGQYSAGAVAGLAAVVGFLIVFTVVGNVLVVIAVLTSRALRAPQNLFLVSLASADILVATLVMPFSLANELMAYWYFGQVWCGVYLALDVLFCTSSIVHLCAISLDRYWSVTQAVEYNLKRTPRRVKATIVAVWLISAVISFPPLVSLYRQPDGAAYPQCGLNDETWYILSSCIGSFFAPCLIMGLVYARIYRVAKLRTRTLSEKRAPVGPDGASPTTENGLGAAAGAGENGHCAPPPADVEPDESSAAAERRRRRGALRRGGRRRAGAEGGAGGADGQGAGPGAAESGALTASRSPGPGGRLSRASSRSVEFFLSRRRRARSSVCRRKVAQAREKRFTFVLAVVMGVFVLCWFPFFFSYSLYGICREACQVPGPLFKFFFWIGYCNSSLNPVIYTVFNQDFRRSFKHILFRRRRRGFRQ
Details: Compound concentration 10 µM
Description: PDSP Primary Binding target: ADRA2C - Compounds are tested at 10 uM concentration, plate are incubated at room temperature in the dark for 90 minutes. Reaction are stopped by vacuum filtration onto 0.3% polyethyleneimine soaked filter mats using Filtermate harvester. Scintilation cocktail is then melted onto microwave-dried filters on a hot plate and the radio activity is counted in Microbia counter.
In this section, each of the molecules is paired with its reported inhibition.
Respond with the bare value in %.

Sample answers from the record:
                                   molecule                               test_target  assay_result
0         O=C(O)c1n[nH]c2c1C[C@H]1C[C@@H]21  Alpha-2C adrenergic receptor (Homo sapiens) (UniProt P18825)          1.98
1       N#Cc1c(O)nc(SCc2cccc(F)c2F)nc1C1CC1  Alpha-2C adrenergic receptor (Homo sapiens) (UniProt P18825)          5.91
2  CCC[C@H](Oc1cc(C)c(-n2cc(C(F)(F)F)cn2)c(C)c1)c1ccc(C(=O)NCCC(=O)O)cc1  Alpha-2C adrenergic receptor (Homo sapiens) (UniProt P18825)          5.06
3  COc1ccc(NS(=O)(=O)c2sc3ccc(Cl)cc3c2C)cc1N1CCNCC1  Alpha-2C adrenergic receptor (Homo sapiens) (UniProt P18825)          35.2
4  CN1C[C@H](C(=O)N[C@]2(C)O[C@@]3(O)[C@@H]4CCCN4C(=O)[C@H](Cc4ccccc4)N3C2=O)C[C@@H]2c3cccc4[nH]cc(c34)C[C@H]21  Alpha-2C adrenergic receptor (Homo sapiens) (UniProt P18825)           115

Then this molecule:
Lab note: "N=C(N)SCCc1c[nH]cn1" gave inhibition of 20.8

---

Biological target: UniProt:P28221
Sequence (P28221 whole entry): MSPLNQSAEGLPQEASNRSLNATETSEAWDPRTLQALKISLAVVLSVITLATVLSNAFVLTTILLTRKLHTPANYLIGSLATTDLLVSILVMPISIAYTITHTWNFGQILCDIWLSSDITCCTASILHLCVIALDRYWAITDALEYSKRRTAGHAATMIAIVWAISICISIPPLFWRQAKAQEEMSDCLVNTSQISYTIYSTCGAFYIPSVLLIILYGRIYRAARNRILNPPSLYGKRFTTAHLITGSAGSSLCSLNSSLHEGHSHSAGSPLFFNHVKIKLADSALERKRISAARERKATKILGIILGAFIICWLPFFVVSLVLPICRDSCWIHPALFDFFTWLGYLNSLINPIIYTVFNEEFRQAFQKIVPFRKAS
Conditions: Compound concentration 10 µM
Description: PDSP Primary Binding target: HTR1D - Compounds are tested at 10 uM concentration, plate are incubated at room temperature in the dark for 90 minutes. Reaction are stopped by vacuum filtration onto 0.3% polyethyleneimine soaked filter mats using Filtermate harvester. Scintilation cocktail is then melted onto microwave-dried filters on a hot plate and the radio activity is counted in Microbia counter.
Class key for inhibition values: range A: < 10%; range B: ≥ 10% and < 60%; range C: ≥ 60%

>>> df
                                   compound  assigned_category
0  CC1CCN(CC[C@H]2CCCN2S(=O)(=O)c2cccc(O)c2)CC1            range C
1  Cc1cc(NC(=O)Nc2ccc(N(C)C)cc2)c2cc(F)cc(F)c2n1            range A
2      CN1CCC(=C2c3ccccc3CC(=O)c3sccc32)CC1            range C

Bin? "Cc1cn2cc(CC(=O)N3CCC4(CC3)CN(Cc3ccc(-n5nccn5)cc3Cl)C4)nc2s1"
range A

Tag the class for "c1cc(CN2CCCNCCNCCCNCC2)ccc1CN1CCCNCCNCCCNCC1"
range A

Band of OCc1cc(C(O)CNCCCCCCOCCCCc2ccccc2)ccc1O (stereo unspecified) ?
range C

Lab note: which band did "CCc1nn2c(C)cc(C)nc2c1Cc1ccc(-c2nnc(C3CCNCC3)o2)cc1" land in?
range B

Hi, small favor: classify "COc1ccnc(N2CCC3(CCCN(Cc4c[nH]c5ccccc45)C3=O)CC2)n1" by its inhibition when you get a moment.
range B

Returns: class label. Input: "CCc1cc2c(cc1CC)CC(NC[C@H](O)c1ccc(O)c3[nH]c(=O)ccc13)C2"
range C

Please classify: "CCCCN1CCC(COC(=O)c2cc(Cl)c(N)c3c2OCCO3)CC1"
range B

Band for the recorded inhibition of "COc1ccc2[nH]cc(CCNC(C)=O)c2c1" ?
range B

Band for the recorded inhibition of "Cc1cc(C)cc(-c2cnc3cc(Cl)c(-c4cccc(O)c4)cc3c2OCCCN)c1" ?
range C

Which class holds "COc1ccc(NS(=O)(=O)c2sc3ccc(Cl)cc3c2C)cc1N1CCNCC1" ?
range C

Field: class (inhibition) — entry: "CCCSc1nc(N[C@@H]2C[C@H]2c2ccc(F)c(F)c2)c2nnn([C@@H]3C[C@H](OCCO)[C@@H](O)[C@H]3O)c2n1"
range B

Looking at "O=C(Cc1ccc(Cl)c(Cl)c1)N1CCCC[C@H]1CN1CCCC1" , which class would you pick?
range B

Classify this compound: "COc1ccc(Br)cc1S(=O)(=O)NC(=O)/C=C/c1ccccc1Cc1ccc2ccccc2c1"
range B

Input CN1CCCC(n2nc(Cc3ccc(Cl)cc3)c3ccccc3c2=O)CC1 (stereo unspecified) ; output its category
range B

Classify this compound: "OC1(c2ccc(Cl)cc2)CCN(Cc2c[nH]c3ccccc23)CC1"
range B

Please let me know in which category the item CC(C)(C(=O)O)c1ccc(C(O)CCCN2CCC(C(O)(c3ccccc3)c3ccccc3)CC2)cc1 (stereo unspecified) belongs.
range B

Which bin should I file "c1nc(CC2CCNCC2)c[nH]1" under?
range A
